This document collects pKi values reported for Cannabinoid receptor 1 (Rattus norvegicus).
One number for each entry, as −log10 of the molar value.

CCCCCCC(C)(C)c1ccc([C@H]2CCC[C@@H](O)C2)c(O)c1 = 6.13
CCCCCCCC(C)(C)c1ccc([C@H]2CCC[C@@H](O)C2)c(O)c1 = 8.33
CC1=C[C@H]2c3c(O)cc(CCCCCF)cc3OC(C)(C)[C@@H]2CC1 = 7.24

Parameters: items (list). Returns: pKi for each item.
1. CC1=C[C@H]2c3c(O)cc(CCCCCI)cc3OC(C)(C)[C@@H]2CC1
2. CCCCCCC(C)(C)c1cc(O)c2c(c1)OC(C)(C)[C@H]1CCC(CO)=C[C@H]21 [THC-DMH, (-)-11-OH]
3. CCCCCCCCC(C)(C)c1ccc([C@H]2CCC[C@@H](O)C2)c(O)c1
4. CC1=C[C@H]2c3c(O)cc(CCCCCBr)cc3OC(C)(C)[C@@H]2CC1

1. 8.11
2. 9.14
3. 7.55
4. 8.12

* * *

This document collects Ki values reported for Cannabinoid receptor 1 (Rattus norvegicus).

Some solved cases for reference:
CCCCCc1cc(OCCCN)c2c(c1)OC(C)(C)[C@@H]1CCC(C)=C[C@@H]21 = > 10 µM
CCC(C)(C)c1ccc([C@H]2CCC[C@@H](O)C2)c(O)c1 = > 10 µM

Any idea what its Ki is? The compound is OCCC[C@@H]1CC[C@@H](O)C[C@H]1c1ccccc1O
> 10 µM

Source listed as BindingDB's records for PubMed 8474008.
